molecular target: CDK2 (Homo sapiens); construct: endogenous in cells; host or cells: MKN1 cells; assay: CDK2 degradation in MKN1 cells (AlphaLISA); type: cell-based; details: 14 h incubation
result_type: CDK2 degradation 14 h: Average Dmax %

• Cc1cc(S(=O)(=O)C2CC3(CCN(CC4CCN(c5cccc6c(N7CCC(=O)NC7=O)cncc56)CC4)CC3)C2)ccc1Nc1ncc2cc(Cl)c(=O)n(C3CCCC3)c2n1 [I-82] = A (A (>75% o))
• Cc1cc(S(=O)(=O)NC2(C)CC(N3CCN(CC4CCN(c5ccc6c(c5F)n(C)c(=O)n6C5CCC(=O)NC5=O)CC4)CC3)C2)ccc1Nc1ncc(C(F)(F)F)c(N2CCCC(C)(O)C2)n1 (centres unmarked) [I-666] = A (A (>75% o))
• Cc1cc(S(=O)(=O)NC2CC(N3CCN(CC4CCN(c5ccc6c(c5F)n(C)c(=O)n6C5CCC(=O)NC5=O)CC4)CC3)C2)ccc1Nc1ncc(C(F)(F)F)c(N2CCCC(C)(O)C2)n1 (centres unmarked) [I-831] = A (A (>75% o))
